# Measurement Target: mutEGFR (D770_N771insSVD) (Homo sapiens, UniProt P00533, DUP768-770)
# Construct: GST-EGFR #3 (SVD between D770 and N771); made in house; host or cells: Sf9 insect cells (baculovirus)
# Sequence (P00533 with tags, fused parts or gaps DUP768-770): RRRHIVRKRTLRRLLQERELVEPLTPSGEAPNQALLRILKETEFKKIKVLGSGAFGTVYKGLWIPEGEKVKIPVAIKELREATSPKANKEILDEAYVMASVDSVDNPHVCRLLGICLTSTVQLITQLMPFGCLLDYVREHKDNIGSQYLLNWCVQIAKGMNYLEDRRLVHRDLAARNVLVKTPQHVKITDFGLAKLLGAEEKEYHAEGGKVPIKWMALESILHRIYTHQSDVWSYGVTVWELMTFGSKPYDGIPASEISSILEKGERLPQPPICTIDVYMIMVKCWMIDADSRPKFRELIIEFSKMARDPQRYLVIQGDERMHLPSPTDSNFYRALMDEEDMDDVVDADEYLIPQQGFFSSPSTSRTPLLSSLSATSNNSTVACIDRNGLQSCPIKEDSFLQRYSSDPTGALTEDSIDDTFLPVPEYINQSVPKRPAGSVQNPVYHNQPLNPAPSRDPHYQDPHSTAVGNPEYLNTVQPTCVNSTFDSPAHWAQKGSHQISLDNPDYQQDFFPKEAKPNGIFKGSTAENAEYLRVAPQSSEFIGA
# Assay Procedure: Exon20-Mutant-EGFR (D770_N771insSVD) kinase assay (TR-FRET)
# Format: biochemical
# Assay Conditions: mutEGFR (D770_N771insSVD) kinase assay IC50, Table 2a; D770_N771insSVD; 2 mM ATP
Reported Property: IC50 (nM)

Record excerpt, results attached:
• C=CC(=O)N1CCn2nc(-c3ccc(C(F)(F)F)cc3)c(-c3ccncc3C3CC3)c2C1 = 350
• CCc1ccc(-c2nn3c(c2-c2ccncc2)CN(C(=O)/C=C/CN(C)C)CC3)cc1 = 5.01
• C=CC(=O)N1CCn2nc(-c3cccc(OC)c3)c(-c3ccncc3)c2C1 = 2.19

P: CN(C)C/C=C/C(=O)N1Cc2c(-c3ccncc3)c(-c3ccc(Cl)cc3)nn2CC1(C)C
Q: CC1c2c(-c3ccnc4[nH]ccc34)c(-c3ccc(F)cc3)nn2CCN1C(=O)/C=C/CN(C)C (single isomer, unassigned; isomer 1) [Example 255]
R: C=CC(=O)N1CCn2nc(-c3ccc(OC)cc3)c(-c3ccncc3)c2C1
S: C=CC(=O)N1CCn2nc(Nc3ccccc3)c(-c3ccncc3)c2C1
T: Cc1c[nH]c2nccc(-c3c(-c4ccc(F)cc4)nn4c3C(C)N(C(=O)/C=C/CN(C)C)CC4)c12 (single isomer, unassigned; isomer 1) [Example 268]
Exercise: Ascending by IC50, please. Kindly provide the labels arranged according to the requested ordering.
Solution: R, S, P, T, Q
(R: 1.09 nM, S: 2.35 nM, P: 6.2 nM, T: 940 nM, Q: 3180 nM)

====

# System: BA/F3 (insSVD) cells
# Assay Procedure: Ba/F3-EGFR-insSVD cell survival assay (Cell Titer-Glo)
# Format: cell-based
# Assay Conditions: Mus musculus, BaF3, 48 h, Table 3a, cell survival, Cell Titer-Glo, with 10 ng/ml EGF, without IL-3
# maps each entry to its pIC50
// scale note: pIC50 = -log10(conc_M); give the bare number

Some compounds with recorded pIC50:
* CC1CN(C(=O)/C=C/CN(C)C)Cc2c(-c3ccncc3)c(-c3ccc(Cl)cc3F)nn21 (single isomer, unassigned; isomer 1) [Example 287] | 7.43
* Cc1c[nH]c2nccc(-c3c(-c4ccc(C(F)(F)F)cc4)nn4c3CN(C(=O)/C=C/CN(C)C)[C@@H](C)C4)c12 [Example 254] | 7.40
* C=CC(=O)N1CCn2nc(-c3ccc(OC)cc3)c(-c3ccncc3)c2C1 [Example 41] | 7.43
* CN(C)C/C=C/C(=O)N1CCn2nc(-c3cc(Cl)ccc3F)c(-c3ccncc3)c2C1 [Example 149] | 6.70
* C=CC(=O)N1Cc2c(-c3ccncc3)c(-c3ccc(F)cc3)nn2C(C)(C)C1 [Example 207] | 7.61
* C=CC(=O)N1Cc2c(-c3ccncc3)c(-c3ccc(Cl)c(C)c3)nn2C(C)(C)C1 [Example 208] | 7.80

Just so you know, measured pIC50 for C=CC(=O)N1CCn2nc(-c3ccc(Cl)cc3C)c(-c3ccncc3)c2C1 [Example 117] came out at 7.26

C=CC(=O)N1CCn2nc(-c3ccc(Cl)cc3F)c(-c3ccnc4[nH]cc(C)c34)c2C1 [Example 49] has a reported pIC50 of 7.14
